# target-entity: EGFR tyrosine kinase (Homo sapiens, UniProt P00533)
# Sequence (P00533 25-1210): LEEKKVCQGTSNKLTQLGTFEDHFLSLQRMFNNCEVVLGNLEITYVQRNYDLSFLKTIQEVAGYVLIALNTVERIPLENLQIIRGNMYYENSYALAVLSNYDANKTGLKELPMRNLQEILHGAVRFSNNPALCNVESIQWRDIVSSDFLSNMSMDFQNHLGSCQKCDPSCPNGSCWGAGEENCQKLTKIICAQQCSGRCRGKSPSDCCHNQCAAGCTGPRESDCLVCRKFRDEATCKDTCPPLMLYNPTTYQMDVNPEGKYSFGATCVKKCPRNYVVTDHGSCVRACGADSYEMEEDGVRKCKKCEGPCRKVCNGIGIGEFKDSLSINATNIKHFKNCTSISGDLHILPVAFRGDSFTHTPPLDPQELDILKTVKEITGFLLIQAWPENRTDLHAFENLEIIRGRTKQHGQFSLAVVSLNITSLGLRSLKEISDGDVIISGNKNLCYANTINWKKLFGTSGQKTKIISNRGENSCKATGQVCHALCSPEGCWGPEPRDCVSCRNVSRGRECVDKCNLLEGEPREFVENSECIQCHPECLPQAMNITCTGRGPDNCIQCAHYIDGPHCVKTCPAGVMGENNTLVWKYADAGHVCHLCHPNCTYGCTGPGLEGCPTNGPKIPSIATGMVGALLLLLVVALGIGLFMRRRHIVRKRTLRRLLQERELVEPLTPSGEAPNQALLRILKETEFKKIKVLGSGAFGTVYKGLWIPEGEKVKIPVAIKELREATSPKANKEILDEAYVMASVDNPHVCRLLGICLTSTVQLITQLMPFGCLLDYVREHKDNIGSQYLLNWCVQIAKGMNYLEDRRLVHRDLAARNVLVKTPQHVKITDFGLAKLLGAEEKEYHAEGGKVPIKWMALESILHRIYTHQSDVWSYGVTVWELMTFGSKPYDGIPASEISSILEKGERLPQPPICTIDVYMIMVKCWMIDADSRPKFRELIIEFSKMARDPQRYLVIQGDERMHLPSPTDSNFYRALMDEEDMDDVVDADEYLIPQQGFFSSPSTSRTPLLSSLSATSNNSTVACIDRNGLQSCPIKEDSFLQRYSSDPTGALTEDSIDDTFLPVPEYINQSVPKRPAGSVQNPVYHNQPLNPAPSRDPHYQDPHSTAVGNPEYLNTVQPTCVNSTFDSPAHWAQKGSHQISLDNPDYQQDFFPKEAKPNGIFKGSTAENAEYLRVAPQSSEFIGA
# protocol: EGFR tyrosine kinase inhibitory activity (ELISA)
# Type: biochemical
# particulars: poly(Glu, Tyr)4:1 substrate, 10 μM ATP, 60 min at 37 °C, read-out: Anti-EGFR IC50 (µM) ± SD
readout-label: IC50 (µM)

compound | readout-label | numeric-result
COC1OC(=O)c2c(O)cc(C)c3c4c(c(O)c1c23)C12COC(=O)c3c(O)cc(C)c(c31)C(=O)C4C2OC(C)=O (centres unmarked) [Compound 3, bacillisporin F] | IC50 | 4.41

(A) COC12c3c(C)cc(O)c4c3C3=C(OC(C)(O)CC3OC4=O)C1C13COC(=O)c4c(O)cc(C)c(c41)C(=O)C2C3OC(C)=O (centres unmarked) [Compound 1, verruculosin A]
(B) CC(=O)OC1C2C(=O)c3c(C)cc(O)c4c3C1(COC4=O)c1c(O)c3c4c(c(O)cc(C)c4c12)C(=O)OC3=O (centres unmarked) [Compound 5, xenoclauxin]
Incoming: When A and B are compared, which has the higher number for IC50? // output: label of the selected item
Outgoing: A
